ASSAYED_TARGET: Oxysterols receptor LXR-beta (Homo sapiens, UniProt P55055);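 further: Cell-based luminescence dose-response assay of agonist activity at LXR, run as a confirmatory counterscreen to a daf-12 agonist screen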;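 further: HEK293 cells with Gal4-LXR fusion and GAL4-driven luciferase reporter; agonist potency from rising luciferase signal of a Gal4-LXR reporter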
Sequence (P55055 whole entry, the tested form may be a part): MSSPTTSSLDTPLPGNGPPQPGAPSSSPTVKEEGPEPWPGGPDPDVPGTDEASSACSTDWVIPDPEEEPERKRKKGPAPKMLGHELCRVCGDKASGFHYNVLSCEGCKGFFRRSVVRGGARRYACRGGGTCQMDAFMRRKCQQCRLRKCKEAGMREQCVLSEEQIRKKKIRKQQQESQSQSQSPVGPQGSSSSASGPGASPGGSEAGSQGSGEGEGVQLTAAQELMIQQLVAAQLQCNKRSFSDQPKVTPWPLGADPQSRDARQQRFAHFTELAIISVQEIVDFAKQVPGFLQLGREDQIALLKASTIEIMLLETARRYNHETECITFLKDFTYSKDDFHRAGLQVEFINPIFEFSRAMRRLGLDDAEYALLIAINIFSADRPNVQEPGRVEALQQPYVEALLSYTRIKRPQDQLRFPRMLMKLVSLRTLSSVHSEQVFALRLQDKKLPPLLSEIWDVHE
Type: functional, cell-based
Active and inactive are the calls of the source.

SMILES_REPR	ASSAYED_TARGET	EC50
COc1ccc(-c2csc(-c3ccccc3)n2)c(OC)c1	Oxysterols receptor LXR-beta (Homo sapiens, UniProt P55055)	> 67.5 µM (inactive)
O=C(NC1=NCCS1)c1sc2cc(F)ccc2c1Cl	Oxysterols receptor LXR-beta (Homo sapiens, UniProt P55055)	> 67.6 µM (inactive)
O=C(c1c(Cl)nc2sccn12)N(C(=O)c1c(Cl)nc2sccn12)c1ccc(Cl)cn1	Oxysterols receptor LXR-beta (Homo sapiens, UniProt P55055)	> 67.5 µM (inactive)
Cc1ccc2[nH]c(-c3sc4nc(C)cc(C)c4c3N)nc2c1	Oxysterols receptor LXR-beta (Homo sapiens, UniProt P55055)	> 67.5 µM (inactive)

###

ASSAYED_TARGET: FAD-linked sulfhydryl oxidase ALR (Homo sapiens, UniProt P55789)
Sequence (P55789 whole entry): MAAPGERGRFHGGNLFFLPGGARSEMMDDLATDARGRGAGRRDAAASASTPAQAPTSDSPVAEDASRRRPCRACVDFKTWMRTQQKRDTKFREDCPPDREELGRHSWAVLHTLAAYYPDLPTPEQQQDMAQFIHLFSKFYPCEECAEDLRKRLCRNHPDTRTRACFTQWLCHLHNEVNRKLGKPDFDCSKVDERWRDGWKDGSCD
EXPERIMENT_NOTES: ALR-catalysed DTT oxidation blockers – biochemical, H2O2 detection, luminescence, cherry-pick, dose response (AID 493248)
Active and inactive are the calls of the source.
QUANTITY_NAME: AC50

COMPOUND	RESULT_VALUE
CN(C)c1ccc(NC(=O)CN2CCN(S(=O)(=O)c3cc(Cl)ccc3Cl)CC2)cc1	2310 nM (active)
CC(C)C1C(C#N)=C(N)Oc2[nH]nc(-c3cccs3)c21 (stereo not drawn)	6410 nM (active)
CC(=O)Oc1ccc(/C=N/NC(=O)C2CCCN2S(=O)(=O)c2ccc(Cl)cc2)cc1 (stereo not drawn)	12700 nM (active)
O=S(=O)(O)c1ccc(N2N=C(c3ccccc3)CC2c2ccccc2)cc1 (stereo not drawn)	10900 nM (active)
Cc1ccc(S(=O)(=O)N(C)CC(=O)Nc2ccccc2N2CCCC2)cc1	2390 nM (active)
O=C(NNc1cc(Br)c(O)c(Br)c1)c1ccccc1	192 nM (active)
O=C(c1cccs1)N1CCN=C1SCc1cccnc1	1270 nM (active)
COc1ccccc1NC(=O)CN1CCSc2ccccc21	1320 nM (active)
Nc1ccc(NC(=O)c2cccs2)cc1	515 nM (active)
CSc1nccn1CC(=O)Nc1ccc(F)cc1	2880 nM (active)
CCN(CC)c1ccc(NS(=O)(=O)c2cn(C)c(=O)n(C)c2=O)c(C)c1	789 nM (active)
Cc1ccc(Oc2ccc(S(=O)(=O)Nc3ccc(C(=O)O)cc3)cc2)cc1	714 nM (active)
O=C1CCC(=O)N1c1ccc(CSc2nc3ccccc3[nH]2)cc1	1220 nM (active)

###

List of IC50 values.
ASSAYED_TARGET: Fatty acid synthase (Homo sapiens)
Sequence (P49327 whole entry): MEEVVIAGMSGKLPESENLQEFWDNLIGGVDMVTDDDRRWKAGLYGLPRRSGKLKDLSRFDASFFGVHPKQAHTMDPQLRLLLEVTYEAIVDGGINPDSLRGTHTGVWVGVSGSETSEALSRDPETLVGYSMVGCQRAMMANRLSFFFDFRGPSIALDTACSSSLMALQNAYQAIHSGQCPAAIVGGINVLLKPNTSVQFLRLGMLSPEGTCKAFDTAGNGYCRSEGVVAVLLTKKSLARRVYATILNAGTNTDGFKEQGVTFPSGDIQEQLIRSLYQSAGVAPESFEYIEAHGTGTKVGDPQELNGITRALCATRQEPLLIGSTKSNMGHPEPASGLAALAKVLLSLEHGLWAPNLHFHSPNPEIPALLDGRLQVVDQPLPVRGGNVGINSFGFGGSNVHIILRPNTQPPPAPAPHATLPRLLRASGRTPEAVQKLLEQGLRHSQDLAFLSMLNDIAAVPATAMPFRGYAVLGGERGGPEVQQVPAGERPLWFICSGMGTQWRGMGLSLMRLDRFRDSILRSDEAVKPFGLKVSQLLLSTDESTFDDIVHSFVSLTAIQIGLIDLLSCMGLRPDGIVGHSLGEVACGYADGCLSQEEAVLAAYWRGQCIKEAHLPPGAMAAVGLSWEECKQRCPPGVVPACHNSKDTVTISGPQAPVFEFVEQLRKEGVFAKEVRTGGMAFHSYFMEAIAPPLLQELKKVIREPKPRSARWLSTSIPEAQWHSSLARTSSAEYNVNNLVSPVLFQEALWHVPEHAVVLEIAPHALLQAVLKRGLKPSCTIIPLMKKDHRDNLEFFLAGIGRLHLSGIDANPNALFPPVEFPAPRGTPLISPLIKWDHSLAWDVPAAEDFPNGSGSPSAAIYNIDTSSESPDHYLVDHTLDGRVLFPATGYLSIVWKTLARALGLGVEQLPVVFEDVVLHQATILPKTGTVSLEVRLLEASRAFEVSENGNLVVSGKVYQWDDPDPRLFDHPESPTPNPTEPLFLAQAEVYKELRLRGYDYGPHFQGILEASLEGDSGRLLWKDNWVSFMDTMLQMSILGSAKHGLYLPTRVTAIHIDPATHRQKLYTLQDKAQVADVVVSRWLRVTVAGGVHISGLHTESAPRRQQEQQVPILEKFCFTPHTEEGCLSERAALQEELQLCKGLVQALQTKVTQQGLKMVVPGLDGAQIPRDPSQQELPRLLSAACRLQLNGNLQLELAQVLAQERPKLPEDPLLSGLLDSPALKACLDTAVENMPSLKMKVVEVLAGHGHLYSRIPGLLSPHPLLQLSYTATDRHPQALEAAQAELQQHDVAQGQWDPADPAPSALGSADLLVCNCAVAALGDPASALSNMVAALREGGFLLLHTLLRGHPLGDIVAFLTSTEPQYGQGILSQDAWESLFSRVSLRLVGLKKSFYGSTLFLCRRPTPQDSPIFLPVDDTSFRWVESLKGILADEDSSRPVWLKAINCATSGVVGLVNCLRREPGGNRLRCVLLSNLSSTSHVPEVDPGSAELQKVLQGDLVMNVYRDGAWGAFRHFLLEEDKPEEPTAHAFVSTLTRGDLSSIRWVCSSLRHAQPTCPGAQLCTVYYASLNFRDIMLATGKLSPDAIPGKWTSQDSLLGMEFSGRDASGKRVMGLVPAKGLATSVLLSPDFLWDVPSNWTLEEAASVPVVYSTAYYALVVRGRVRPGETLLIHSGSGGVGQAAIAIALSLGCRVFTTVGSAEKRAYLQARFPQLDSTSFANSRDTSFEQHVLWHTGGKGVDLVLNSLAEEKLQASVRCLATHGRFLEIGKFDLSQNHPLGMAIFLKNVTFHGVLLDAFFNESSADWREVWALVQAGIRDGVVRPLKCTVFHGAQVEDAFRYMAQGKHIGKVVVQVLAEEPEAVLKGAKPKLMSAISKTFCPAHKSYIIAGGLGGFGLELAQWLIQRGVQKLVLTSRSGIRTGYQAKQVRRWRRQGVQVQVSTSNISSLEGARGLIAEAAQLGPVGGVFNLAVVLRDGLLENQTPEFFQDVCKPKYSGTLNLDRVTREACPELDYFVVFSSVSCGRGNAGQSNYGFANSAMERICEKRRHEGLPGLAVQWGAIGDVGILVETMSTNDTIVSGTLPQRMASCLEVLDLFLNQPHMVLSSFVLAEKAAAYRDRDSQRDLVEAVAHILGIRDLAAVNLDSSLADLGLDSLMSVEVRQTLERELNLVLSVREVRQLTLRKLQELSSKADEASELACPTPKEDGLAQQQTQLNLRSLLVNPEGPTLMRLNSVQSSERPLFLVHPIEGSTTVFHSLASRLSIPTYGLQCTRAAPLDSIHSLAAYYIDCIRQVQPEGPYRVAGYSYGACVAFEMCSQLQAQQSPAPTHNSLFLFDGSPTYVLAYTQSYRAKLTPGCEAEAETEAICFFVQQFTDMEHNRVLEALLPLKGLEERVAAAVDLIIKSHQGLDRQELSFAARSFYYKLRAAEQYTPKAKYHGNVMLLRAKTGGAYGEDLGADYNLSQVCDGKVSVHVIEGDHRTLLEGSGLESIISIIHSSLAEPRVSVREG
EXPERIMENT_NOTES: inhibition of human FAS-TE enzyme activity – biochemical, kinetic fluorescence intensity, dose response (AID 624326);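 further: rate of fluorescence rise from hydrolysis of a fluorogenic O-methyl fluorescein ester substrate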
Type: functional
Activity calls are given as the source filed them.

COMPOUND	IC50
CCOc1cccc2cc(C(=O)NCCC3=CCCCC3)c(=O)oc12	4.15 µM (active)
COc1ccc(C(=O)OCC(=O)Nc2ccccc2)cc1[N+](=O)[O-]	9.96 µM (active)
Cc1ccc(S(=O)(=O)N(C)C)cc1NC(S)=NC(C)CCCC(C)C (stereo not drawn)	9.82 µM (active)

###

Examples of molecules with documented EC50 follow.
Tested on: Streptococcus
EXPERIMENT_NOTES: GAS UMAA2166 growth inhibition – luminescence, BacTiterGlo, counter-screen for streptokinase expression inhibitor project, dose response (AID 1915);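 further: potency for reduction of bacterial viability or growth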
Format: functional, organism-based
Activity calls are given as the source filed them.
QUANTITY_NAME: EC50

MOLECULE	RESULT_VALUE
Cc1cc(C(=O)N/N=C/c2ccc([N+](=O)[O-])s2)[nH]n1	2.69 µM (active)
O=C(N/N=C/c1cc(Cl)cc([N+](=O)[O-])c1O)C(O)(c1ccccc1)c1ccccc1	7.21 µM (active)
NS(=O)(=O)c1ccc(N2N=C(c3ccc(Br)cc3)CC2c2ccc(F)cc2)cc1 (stereo not given)	5.44 µM (active)
CCCc1nnc(NC(=O)c2c(O)c3cccc4c3n(c2=O)CCC4)s1	3.1 µM (active)
COc1ccc(NC(=O)c2cccc(-c3ccc(O)cc3)c2)cn1	> 150 µM (not active)
